# Measured on: KinA/Spo0F (sporulation kinase A/sporulation initiation phosphotransferase F) (Bacillus subtilis (strain 168), UniProt P06628+P16497)
# Test protocol: Ability to inhibit autophosphorylation of KinA/Sp0F assay
# Assay type: protein assay
Property measured: IC50 (µM)
Express the result in µM but write the number alone.

Prompt: Give IC50 for the following molecule: "Oc1c(Cl)cc(Cl)cc1-c1n[nH]c(-c2cccc(Cl)c2)n1"
Completion: 87

Prompt: Please list IC50 recorded for the molecule "Oc1c(Cl)cc(Cl)cc1-c1n[nH]c(-c2ccccc2)n1"
Completion: 380

Prompt: Fill in IC50 for record "O=[N+]([O-])c1cc(-c2n[nH]c(-c3ccc(Cl)c(Cl)c3)n2)c(O)c([N+](=O)[O-])c1"
Completion: 8

Prompt: Answer with the recorded IC50 for the molecule listed here: "Oc1c(Cl)cc(Cl)cc1-c1n[nH]c(-c2ccc(Cl)c(C(F)(F)F)c2)n1"
Completion: 16

Prompt: Specify reported IC50 for the molecule shown: "Oc1c(Cl)cc(Cl)cc1-c1n[nH]c(-c2ccc(Cl)cc2)n1"
Completion: 80

Prompt: Quote IC50 reported for "Oc1c(-c2n[nH]c(-c3ccc(Cl)c(Cl)c3)n2)cc(C(F)(F)F)cc1C(F)(F)F" please.
Completion: 44

Attribution: ChEMBL document CHEMBL1131513
